We begin with a simple list: items and their reported solubility (g/100 g solution).
assay_details: xn = mol fraction of the nth substance listed, in the solute-free solvent
condition_parameters: 308.15 K; x2 = 0.4
observable: solubility (g/100 g solution)

• CCOC(=O)C1=CC2(CC)CCCN3CCc4c(n1c1ccccc41)C32 (configuration not stated) + CCO + O = 0.346
• O=C(CC(=O)c1ccccc1)c1ccccc1 + CCO + O = 1.97
• CC1(C)SC2C(NC(=O)C(NC(=O)N3CCNC3=O)c3ccccc3)C(=O)N2C1C(=O)O (configuration not stated) + CO + CC(C)O = 0.455
• CN1CCN(C(=O)OC2c3nccnc3C(=O)N2c2ccc(Cl)cn2)CC1 (configuration not stated) + C1CCOC1 + O = 1.54
• CCCCN1CCCCC1C(=O)Nc1c(C)cccc1C.Cl.O (configuration not stated) + CO + O = 7.92
• CN1CCN(C(=O)OC2c3nccnc3C(=O)N2c2ccc(Cl)cn2)CC1 (configuration not stated) + CC(C)=O + O = 0.615
• O=C(CC(=O)c1ccccc1)c1ccccc1 + CO + O = 0.162
• O=c1ccc2ccccc2o1 + CO + O = 17.7
• O=C(CC(=O)c1ccccc1)c1ccccc1 + CC(C)O + O = 1.26
• CN1CCN(C(=O)OC2c3nccnc3C(=O)N2c2ccc(Cl)cn2)CC1 (configuration not stated) + CC#N + O = 2.11
• CN1CCN(C(=O)OC2c3nccnc3C(=O)N2c2ccc(Cl)cn2)CC1 (configuration not stated) + CCO + O = 0.666
• CCCCN1CCCCC1C(=O)Nc1c(C)cccc1C.Cl.O (configuration not stated) + CCO + O = 5.77
